Overview of recorded polymerase ribozyme fitness (log ratio) for various variants
B1: TPR 5TU (parent)
chain: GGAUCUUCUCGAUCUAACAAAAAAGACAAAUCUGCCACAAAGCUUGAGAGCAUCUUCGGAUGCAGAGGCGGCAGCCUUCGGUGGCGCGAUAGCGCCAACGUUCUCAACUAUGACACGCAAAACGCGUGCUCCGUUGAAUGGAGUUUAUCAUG

- Variants of: B1
- run_description: polymerase ribozyme fitness, log enrichment relative to wild type (log ratio); higher = more active; in vitro selection for triplet polymerase activity
Fewer inactive variants are shown than the library holds.
reported_metric: polymerase ribozyme fitness (log ratio)

[[record]]
variant = "C5A U7G G88U C105G G136A A137U G152U"
test_result = "≤ -4.2"

[[record]]
variant = "A23U C54U G74U U78G"
test_result = "≤ -4.2"

[[record]]
variant = "C14A A28U G68U G92C C125U A137C A150C"
test_result = "≤ -4.2"

[[record]]
variant = "C72G C96U C116U"
test_result = "≤ -4.2"

[[record]]
variant = "A26U A39U G58A A66C C93U C149G"
test_result = "≤ -4.2"

[[record]]
variant = "U13G C85U C96U G100A A115C"
test_result = "≤ -4.2"

[[record]]
variant = "A52G A60G C75U G88U G92A C95U C116U"
test_result = "≤ -4.2"

[[record]]
variant = "C5G G50A U61G G62A A66C C96A U146A"
test_result = "≤ -4.2"

[[record]]
variant = "U7C G50A G84U C87A U151A"
test_result = "≤ -4.2"

[[record]]
variant = "G71C G92A"
test_result = "≤ -4.2"

[[record]]
variant = "U6G A28C C76G G92U"
test_result = "≤ -4.2"

[[record]]
variant = "A49C C87A C132A"
test_result = "≤ -4.2"

[[record]]
variant = "A24U G58A C79G A91U C118A G141C"
test_result = "≤ -4.2"

